# System: Colo205
# protocol: Cell growth inhibition assay (Cell Titer Glo), Colo205
# Assay type: cell-based, Human
# conditionSummary: Homo sapiens, COLO 205, 72 h; Colo205 colon; BRAF V600E, KRAS WT, PIK3CA WT; 3 days; mean ± std; read-out: IC50 values, Single Agent
Form field: IC50 (one value per entry).
resultType: IC50 (nM)

>  <structureString>
Cn1ncc(Cl)c1-c1cc(C(=O)N[C@H](CN)Cc2cccc(F)c2)sc1Cl

>  <measValue>
3290

$$$$
>  <structureString>
CC(C)(C)c1nc(-c2cccc(NS(=O)(=O)c3c(F)cccc3F)c2F)c(-c2ccnc(N)n2)s1

>  <measValue>
13

$$$$
